Measured values drawn from patent US20210324080A1 for this set.

# MEASURED TARGET: T1, monkey CTLA-4, full length, on transfected HEK293 cells (monkey)
# T1 construct: whole, on cells; also called cCTLA-4; HEK293-cCTLA-4
# PROCEDURE DETAILS: FACS, 293F-cCTLA-4 cells
MFI at 1.6 nM values, listed per item
Just the number.

Problem: GET /values?readout=MFI at 1.6 nM&item= 97A8D1 (chimeric antibody purified from hybridoma supernatant) (antibody, V domains shown, also called mAb49; mAb049) VH: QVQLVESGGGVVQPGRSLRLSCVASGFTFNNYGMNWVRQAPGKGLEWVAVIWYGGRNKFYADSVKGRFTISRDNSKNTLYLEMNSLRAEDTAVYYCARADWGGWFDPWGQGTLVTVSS VL: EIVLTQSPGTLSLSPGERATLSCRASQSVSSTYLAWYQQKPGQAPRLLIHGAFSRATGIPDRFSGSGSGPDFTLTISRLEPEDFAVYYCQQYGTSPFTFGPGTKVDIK
Result: 513

Problem: 40C4C6 (chimeric antibody purified from hybridoma supernatant) (antibody, V domains shown, also called mAb09; mAb009) VH: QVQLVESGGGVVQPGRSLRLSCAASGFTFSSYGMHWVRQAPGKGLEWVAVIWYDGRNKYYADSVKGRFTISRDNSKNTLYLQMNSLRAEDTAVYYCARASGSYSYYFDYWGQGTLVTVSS VL: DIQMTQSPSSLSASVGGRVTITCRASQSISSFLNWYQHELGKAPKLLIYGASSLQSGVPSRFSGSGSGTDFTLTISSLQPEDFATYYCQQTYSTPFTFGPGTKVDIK , same question.
Result: 421

Problem: 31C12F3 (chimeric antibody purified from hybridoma supernatant) (antibody, V domains shown, also called mAb010) VH: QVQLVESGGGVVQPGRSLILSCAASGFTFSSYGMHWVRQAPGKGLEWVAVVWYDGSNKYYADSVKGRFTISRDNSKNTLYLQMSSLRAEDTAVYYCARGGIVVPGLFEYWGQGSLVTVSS VL: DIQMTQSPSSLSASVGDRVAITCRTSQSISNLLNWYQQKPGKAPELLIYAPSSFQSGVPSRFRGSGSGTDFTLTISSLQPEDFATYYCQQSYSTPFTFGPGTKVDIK , same question.
Result: 455

Next:
Problem: GET /values?readout=MFI at 1.6 nM&item= 92C8B6 (chimeric antibody purified from hybridoma supernatant) (antibody, V domains shown, also called mAb42; mAb042) VH: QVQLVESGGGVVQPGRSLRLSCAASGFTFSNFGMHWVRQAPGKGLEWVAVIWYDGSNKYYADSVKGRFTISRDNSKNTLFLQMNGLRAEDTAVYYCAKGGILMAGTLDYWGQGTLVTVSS VL: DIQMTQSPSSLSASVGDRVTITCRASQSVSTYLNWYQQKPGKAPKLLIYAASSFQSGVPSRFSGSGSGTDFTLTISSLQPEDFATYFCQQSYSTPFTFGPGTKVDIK
Result: 465
